Values were extracted from paper PMC4381587.

molecular target: recombinant human PI3K isoform β (Homo sapiens); experiment: Kinase activity in cell-free assay (HotSpot), PI3Kβ; settings: read-out: IC50 against PI3K β isoform
Sequence (P42338 whole entry, canonical isoform): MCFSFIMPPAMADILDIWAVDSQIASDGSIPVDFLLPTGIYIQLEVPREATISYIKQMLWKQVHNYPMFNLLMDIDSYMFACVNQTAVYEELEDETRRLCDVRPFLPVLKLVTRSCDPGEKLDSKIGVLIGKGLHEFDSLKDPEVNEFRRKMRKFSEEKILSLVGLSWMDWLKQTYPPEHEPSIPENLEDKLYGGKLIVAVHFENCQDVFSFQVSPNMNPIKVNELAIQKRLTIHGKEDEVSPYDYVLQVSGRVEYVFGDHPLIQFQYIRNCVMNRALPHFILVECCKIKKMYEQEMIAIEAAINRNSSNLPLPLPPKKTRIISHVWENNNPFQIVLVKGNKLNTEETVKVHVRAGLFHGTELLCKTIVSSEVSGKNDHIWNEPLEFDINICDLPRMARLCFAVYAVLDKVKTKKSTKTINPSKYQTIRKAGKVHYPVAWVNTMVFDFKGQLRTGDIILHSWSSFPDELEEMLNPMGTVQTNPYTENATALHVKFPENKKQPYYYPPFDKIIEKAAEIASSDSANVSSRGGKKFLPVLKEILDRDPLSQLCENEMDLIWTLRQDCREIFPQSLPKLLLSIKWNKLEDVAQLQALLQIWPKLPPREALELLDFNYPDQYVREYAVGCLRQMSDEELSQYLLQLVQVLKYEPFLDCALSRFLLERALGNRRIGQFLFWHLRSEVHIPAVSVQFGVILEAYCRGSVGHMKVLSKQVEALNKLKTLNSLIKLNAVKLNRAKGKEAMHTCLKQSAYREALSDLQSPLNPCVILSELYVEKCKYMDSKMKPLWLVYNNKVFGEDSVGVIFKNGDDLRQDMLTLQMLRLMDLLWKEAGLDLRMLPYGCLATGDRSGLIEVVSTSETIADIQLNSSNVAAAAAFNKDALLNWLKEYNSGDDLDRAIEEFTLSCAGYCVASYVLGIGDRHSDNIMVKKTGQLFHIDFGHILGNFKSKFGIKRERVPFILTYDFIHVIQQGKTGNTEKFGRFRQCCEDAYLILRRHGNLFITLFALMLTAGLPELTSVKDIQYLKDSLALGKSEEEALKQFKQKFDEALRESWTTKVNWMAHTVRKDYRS
Sequence (P27986 whole entry partner, canonical isoform): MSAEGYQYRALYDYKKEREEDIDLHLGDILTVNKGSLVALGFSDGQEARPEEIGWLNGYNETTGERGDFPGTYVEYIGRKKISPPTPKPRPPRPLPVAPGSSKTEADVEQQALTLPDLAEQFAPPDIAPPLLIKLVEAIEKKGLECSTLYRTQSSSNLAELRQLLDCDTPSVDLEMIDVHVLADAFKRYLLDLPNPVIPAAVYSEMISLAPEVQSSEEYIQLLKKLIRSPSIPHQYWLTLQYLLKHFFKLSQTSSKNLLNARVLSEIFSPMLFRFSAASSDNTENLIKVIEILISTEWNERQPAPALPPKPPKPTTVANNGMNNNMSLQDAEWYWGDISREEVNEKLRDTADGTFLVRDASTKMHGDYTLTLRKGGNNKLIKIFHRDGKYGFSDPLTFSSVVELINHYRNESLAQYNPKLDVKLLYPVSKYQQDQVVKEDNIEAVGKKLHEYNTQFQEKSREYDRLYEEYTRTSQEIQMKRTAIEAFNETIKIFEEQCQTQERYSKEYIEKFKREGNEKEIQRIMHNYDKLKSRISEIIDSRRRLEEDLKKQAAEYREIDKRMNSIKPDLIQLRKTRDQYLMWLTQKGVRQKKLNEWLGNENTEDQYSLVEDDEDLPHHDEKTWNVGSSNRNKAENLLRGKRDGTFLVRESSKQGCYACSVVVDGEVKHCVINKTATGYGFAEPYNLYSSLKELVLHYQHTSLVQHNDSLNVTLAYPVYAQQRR
attributeMeasured: pIC50
Scale explanation: pIC50 corresponds to minus log10 of a concentration expressed in moles per litre.

Exercise: # get_value(readout='pIC50', item= N#C/C(=C\C=C\c1ccc(-c2cc(Cl)ccc2Cl)o1)C(N)=S )
Key: 5.79

* * *

target: recombinant human PI3K isoform α (Homo sapiens); test: Kinase activity in cell-free assay (HotSpot), PI3Kα; conditions: read-out: IC50 against PI3K α isoform
Sequence (P42336 whole entry, canonical isoform): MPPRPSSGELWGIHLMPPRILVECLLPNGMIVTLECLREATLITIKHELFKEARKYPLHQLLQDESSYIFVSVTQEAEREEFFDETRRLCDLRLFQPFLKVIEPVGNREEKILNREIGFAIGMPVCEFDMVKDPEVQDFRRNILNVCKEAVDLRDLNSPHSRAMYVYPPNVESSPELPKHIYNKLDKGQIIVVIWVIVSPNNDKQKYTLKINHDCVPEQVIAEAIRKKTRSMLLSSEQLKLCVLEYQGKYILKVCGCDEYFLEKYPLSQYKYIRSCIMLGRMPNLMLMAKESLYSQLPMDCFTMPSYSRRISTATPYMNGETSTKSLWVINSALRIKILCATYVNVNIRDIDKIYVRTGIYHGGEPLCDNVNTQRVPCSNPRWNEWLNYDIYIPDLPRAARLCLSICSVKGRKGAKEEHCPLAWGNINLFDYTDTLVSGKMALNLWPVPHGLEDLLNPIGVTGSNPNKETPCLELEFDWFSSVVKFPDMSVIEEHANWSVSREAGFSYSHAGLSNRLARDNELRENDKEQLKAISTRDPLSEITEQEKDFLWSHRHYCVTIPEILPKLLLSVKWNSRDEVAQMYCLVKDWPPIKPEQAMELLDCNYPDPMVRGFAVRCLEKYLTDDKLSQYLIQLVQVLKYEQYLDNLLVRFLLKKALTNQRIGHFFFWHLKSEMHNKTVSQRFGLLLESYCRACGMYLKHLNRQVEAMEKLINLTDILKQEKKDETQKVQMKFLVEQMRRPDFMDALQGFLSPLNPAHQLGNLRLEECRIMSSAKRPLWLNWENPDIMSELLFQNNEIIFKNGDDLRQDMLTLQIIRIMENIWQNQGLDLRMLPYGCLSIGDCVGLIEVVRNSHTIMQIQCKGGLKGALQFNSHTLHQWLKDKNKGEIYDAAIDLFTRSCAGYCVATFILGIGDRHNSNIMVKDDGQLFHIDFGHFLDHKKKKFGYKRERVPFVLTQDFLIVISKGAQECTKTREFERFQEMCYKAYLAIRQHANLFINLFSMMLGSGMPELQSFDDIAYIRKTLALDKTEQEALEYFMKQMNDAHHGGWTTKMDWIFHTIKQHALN
Sequence (P27986 whole entry partner, canonical isoform): as the sequence (P27986 whole entry partner, canonical isoform) above
attributeMeasured: IC50 (nM)
Report as a plain number; the unit nM is understood.

Exercise: Given N#C/C(=C\C=C\c1ccc(-c2cc(Cl)ccc2Cl)o1)C(N)=S [C98] , state its recorded IC50.
Key: 590
